Exercise: state measured log10 of Activity for each of the compounds provided.
test system: Mycobacterium tuberculosis; assay: Bactericidal activity against Mycobacterium tuberculosis assessed as minimum concentration required for anaerobicidal activity; type: functional
Heads up: the numbers are on a log10 scale; they represent Activity in µM.

QUERY: Give the reported log10 of Activity for this compound. NC(=O)C(N[C@@H]1COc2nc([N+](=O)[O-])cn2C1)c1ccc(OC(F)(F)F)cc1 (mixture of isomers)
RESULT: 1.48

QUERY: Provide log10 of Activity value for the following compound: "COc1cc(CO[C@@H]2COc3nc([N+](=O)[O-])cn3C2)ccc1OC(F)(F)F"
RESULT: 0.62

QUERY: Item "O=[N+]([O-])c1cn2c(n1)OC[C@@H](OCc1ccc(OC(F)(F)F)c(O)c1)C2" : provide log10 of Activity
RESULT: 0.92

QUERY: Please indicate log10 of Activity recorded for "COc1cc(OC(F)(F)F)ccc1CN[C@@H]1COc2nc([N+](=O)[O-])cn2C1"
RESULT: 0.72

QUERY: Name the recorded log10 of Activity of the compound listed here: "O=[N+]([O-])c1cn2c(n1)OC[C@@H](NCc1ccc(OC(F)(F)F)cc1Cl)C2"
RESULT: 0.32

QUERY: Hello, please tell me recorded log10 of Activity for this one: "O=[N+]([O-])c1cn2c(n1)OC[C@@H](OCc1ccc(OC(F)(F)F)c(F)c1)C2"
RESULT: 0.88

QUERY: Return log10 of Activity (reported value) for this compound: CCCC(N[C@@H]1COc2nc([N+](=O)[O-])cn2C1)c1ccc(OC(F)(F)F)cc1 (mixture of isomers)
RESULT: 0.58

QUERY: Quickly give me recorded log10 of Activity for "O=[N+]([O-])c1cn2c(n1)OC[C@@H](NCc1ccc(OC(F)(F)F)c(N3CCOCC3)c1)C2"
RESULT: 0.85

QUERY: Look up log10 of Activity of "O=[N+]([O-])c1cn2c(n1)OC[C@@H](NCc1ccc(OC(F)(F)F)c(O)c1)C2" and report it.
RESULT: 0.88

QUERY: Identify measured log10 of Activity associated with "O=[N+]([O-])c1cn2c(n1)OC[C@@H](NCc1ccc(OC(F)(F)F)c(Oc3ccccc3)c1)C2"
RESULT: 0.59

QUERY: Return the recorded log10 of Activity value; entry: "CCNC(=O)N(Cc1ccc(OC(F)(F)F)cc1)[C@@H]1COc2nc([N+](=O)[O-])cn2C1"
RESULT: 1.84

QUERY: Recall and state the measured log10 of Activity for "O=[N+]([O-])c1cn2c(n1)OC[C@@H](NCc1ccc(OC(F)(F)F)c(Cl)c1)C2" .
RESULT: 0.62

QUERY: Please list log10 of Activity recorded for the compound "O=C(c1cccc(Cl)c1)N(Cc1ccc(OC(F)(F)F)cc1)[C@@H]1COc2nc([N+](=O)[O-])cn2C1"
RESULT: 1.32

QUERY: Give me measured log10 of Activity, please, for this compound: O=[N+]([O-])c1cn2c(n1)OC[C@@H](NC(CCO)c1ccc(OC(F)(F)F)cc1)C2 (mixture of isomers)
RESULT: 1.36

QUERY: Entry "O=[N+]([O-])c1cn2c(n1)OC[C@@H](NCc1ccc(OC(F)(F)F)cc1N1CCCCC1)C2" needs its log10 of Activity filled in; supply it.
RESULT: 1.04
